# viability, T/C per entry
- System: 276233-004-R-J1-PDC complex spheroid viability;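 further: spheroids exposed to drugs for seven days; 100% = DMSO vehicle control viability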
- PROTOCOL_DESCRIPTION: Anticancer human tumor 276233-004-R-J1-PDC patient-derived colon adenocarcinoma cell line growth inhibition [GQUAD]
- APPLIED_CONDITIONS: second compound 0.316 µM; first compound 0.1 µM; hits give low values

COMPOUND	viability, T/C, %
COc1ncnc(C2CC2)c1-c1ncc2cnn(Cc3ccc(-c4nc(C(F)(F)F)cn4C(C)C)cc3)c2n1 + Cc1[nH]c2ccc(F)cc2c1-c1nc2c3cccnc3c3ncccc3c2[nH]1	63.3
C=CC(=O)N1CCN(c2nc(=O)n(-c3c(C)ccnc3C(C)C)c3nc(-c4c(O)cccc4F)c(F)cc23)C(C)C1 (stereo not drawn) + Cc1[nH]c2ccc(F)cc2c1-c1nc2c3cccnc3c3ncccc3c2[nH]1	94.9
CC(=O)O[C@H]1C(=O)[C@@]2(C)[C@H]([C@H](OC(=O)c3ccccc3)[C@]3(O)C[C@H](OC(=O)[C@H](O)[C@@H](NC(=O)c4ccccc4)c4ccccc4)C(C)=C1C3(C)C)[C@]1(OC(C)=O)CO[C@@H]1C[C@@H]2O + Cc1[nH]c2ccc(F)cc2c1-c1nc2c3cccnc3c3ncccc3c2[nH]1	65.4

These measurements were taken from PubChem BioAssay AID2060496.
